assay: Solubility in water at 5% DMSO; assay type: physicochemical
Listing: solubility of selected compounds
Return type: number; implicit unit µM.

- Compound: "CC(NC(=O)C(NC(=O)CCN(C)C(=O)C(CN)NC(=O)C(c1ccccc1)c1ccccc1)C1CCCCC1)C(=O)N1CCC2(CCCCC2)CC1 (centres unmarked)"
  Quantity: "solubility"
  Unit annotation: "µM"
  Experimental result: 549

Now for the compound whose solubility we want.
Data point: CC(NC(=O)C(CN)NC(=O)CCN(C)C(=O)C(Cc1ccc(-c2ccccc2)cc1)NC(=O)C(c1ccccc1)c1ccccc1)C(=O)N1CCCC1 (centres unmarked) ; solubility = 1330

###

Test: Solubility in PBS with 15% β-cyclodextrin
Assay type: physicochemical
Details: 1 mM, 24 hours agitation, supernatant by HPLC; mean±SD
Procedure: xxxxx Furthermore, an additional effort was done to reevaluate those peptidomimetics from the first generation that were not soluble in the in vitro assay conditions or formed aggregates as described above when incubated with the RPE cells. We then put these peptidomimetics under constant agitation for 24 hours. […] Data are expressed as the mean±SD.
Square brackets hold non-standard residues; d marks the D form. Peptide text beside a SMILES is read from it. * marks the point of attachment. Chg = N[CH](C(=O)O)C1CCCCC1; X1 = C1CCC2(CC1)CCN(*)CC2; PhAc = O=C(Cc1ccccc1)*
Lab note: anything with Conc. in PBS β-cyclodextrin 15% below 800 µM is marked 1; values at 800 µM or higher are marked -1.

Record excerpt, results attached:
- Molecule: "CC(C)CC(NC(=O)COc1ccc(C(C)(C)C)cc1)C(=O)NC(Cc1cccc2ccccc12)C(=O)NC(CCCCN)C(=O)N1CCCCC1 (centres unmarked)"
  Class: -1
- Molecule: "CC(C)CC(NC(=O)C(Cc1c[nH]c2ccccc12)NC(=O)C(NC(=O)C(CCCCN)NC(=O)Cc1ccccc1)C1CCCCC1)C(=O)N1CCC2(CCCCC2)CC1 (centres unmarked) [IP-14-06] (PhAc-K[Chg]WL-X1; configuration not given here)"
  Class: -1
- Molecule: "CCC(C)C(NC(=O)C(c1ccccc1)c1ccccc1)C(=O)NC(CCc1ccccc1)C(=O)NC(CCCCN)C(=O)N1CCC2(CCCCC2)CC1 (centres unmarked)"
  Class: 1

Now, please, on to the next molecule.
Exercise: Item CC(C)CC(NC(=O)COc1ccc(C(C)(C)C)cc1)C(=O)NC(Cc1cccc2ccccc12)C(=O)NC(CN)C(=O)N1CCC2(CCCCC2)CC1 (centres unmarked) : Conc. in PBS β-cyclodextrin 15% beneath 800 µM, strictly?
Solution: -1

###

tested on: Ras signaling pathway (Raf/ERK and PI3K/AKT); assay: Western blot of RAS signaling pathways in EGF-stimulated serum starved hTERT-RPE cells; format: cell-based, human; details: 50 μM, 0.5% DMSO, 2 h before EGF 50 ng/mL 10 min
Numbered stars: 1 amine (or outer) side, 2 acyl side, 3 side chain; on linkers, the order of the positions; unused ones are H or OH. Square brackets hold non-standard residues; d marks the D form. Peptide text beside a SMILES is read from it. * marks the point of attachment. Diphenylacetyl = O=C(C(c1ccccc1)c1ccccc1)*; Phe(4-Me) = Cc1ccc(C[CH](N)C(=O)O)cc1; NMeβAla = CN(CCC(=O)[*:2])[*:1]; Cha = N[CH](CC1CCCCC1)C(=O)O; Chg = N[CH](C(=O)O)C1CCCCC1
Quantity: Inhibition of RAS-effectors protein cascades (P-RAF, P-AKT, P-ERK) by Western blot

- Compound: "Cc1ccc(CC(NC(=O)C(c2ccccc2)c2ccccc2)C(=O)N(C)CCC(=O)NC(CC2CCCCC2)C(=O)NC(C(=O)N2CCCC2C(N)=O)C2CCCCC2)cc1 (centres unmarked) [IPR-471] (Diphenylacetyl-[Phe(4-Me)][NMeβAla][Cha][Chg]P-NH2; configuration not given here)"
  Assay system: "Ras signaling pathway (Raf/ERK and PI3K/AKT)"
  Experimental result: "not better than IP-14-01"
- Compound: "CC(O)C(NC(=O)CCN(C)C(=O)C(Cc1ccc(-c2ccccc2)cc1)NC(=O)C(c1ccccc1)c1ccccc1)C(=O)NC(C(=O)N1CCCC1)C1CCCCC1 (centres unmarked)"
  Assay system: "Ras signaling pathway (Raf/ERK and PI3K/AKT)"
  Experimental result: "not better than IP-14-01"
